Source of measurements: patent US7375180B2

Target: UniProtKB Q9NR97
Experiment: NF-κB-luciferase reporter activation in HEK293-TLR8 cells, 10 μM IRM (Example 1)
Type: cell-based
Parameters: expressed in transfected cells; host or cells: HEK293 (ATCC CRL-1573), pIRES vector, G-418 selected, co-transfected with NFkB-luc reporter
Conditions: 16 hours, luciferase signal, TLR8-transfected cells
Cut-off 3 fold on Fold Increase Over DMSO Control, HEK293-TLR8, inclusive. At or above means yes (1); below means no (0).

Known results for molecules:
molecule	label-value
Nc1nc2ccccc2c2c1ncn2CCOCC#Cc1ccncc1.O=C(O)C(F)(F)F.O=C(O)C(F)(F)F [IRM 8]	no (0)
CCOCc1nc2c(N)nc3ccccc3c2n1CC(C)(C)N [IRM 11]	yes (1)
CCOCc1nc2c(N)nc3c(c2n1CC(C)(C)O)CCCC3 [IRM 1]	yes (1)
CCOCc1nc2c(N)nc3ccccc3c2n1CCOCCCOCc1ccccc1 [IRM 4]	no (0)

Evaluate CCCCc1nc2c(N)nc3cccnc3c2n1CCNC(=O)C(N)CC(C)C (stereo not drawn) [IRM 6] : Fold Increase Over DMSO Control, HEK293-TLR8 at minimum 3 fold?
yes (1)

Evaluate CCCCc1nc2c(N)nc3ccccc3c2n1CC(C)(C)CNC(=O)c1ccccc1 [IRM 15] : Fold Increase Over DMSO Control, HEK293-TLR8 at minimum 3 fold?
no (0)

Evaluate CCCCc1nc2c(N)nc3ccccc3c2n1CCNS(C)(=O)=O [IRM 9] : Fold Increase Over DMSO Control, HEK293-TLR8 at minimum 3 fold?
yes (1)

Evaluate CCc1nc2c(N)nc3ccccc3c2n1CCCCS(=O)(=O)c1cc(Cl)cc(Cl)c1 [IRM 12] : Fold Increase Over DMSO Control, HEK293-TLR8 at minimum 3 fold?
yes (1)

Evaluate CCOCc1nc2c(N)nc3ccccc3c2n1CCOCCNC(=O)NC1CCCCC1 [IRM 13] : Fold Increase Over DMSO Control, HEK293-TLR8 at minimum 3 fold?
no (0)

---

Molecular target: TLR8 (Homo sapiens)
Sequence (Q9NR97 27-1041): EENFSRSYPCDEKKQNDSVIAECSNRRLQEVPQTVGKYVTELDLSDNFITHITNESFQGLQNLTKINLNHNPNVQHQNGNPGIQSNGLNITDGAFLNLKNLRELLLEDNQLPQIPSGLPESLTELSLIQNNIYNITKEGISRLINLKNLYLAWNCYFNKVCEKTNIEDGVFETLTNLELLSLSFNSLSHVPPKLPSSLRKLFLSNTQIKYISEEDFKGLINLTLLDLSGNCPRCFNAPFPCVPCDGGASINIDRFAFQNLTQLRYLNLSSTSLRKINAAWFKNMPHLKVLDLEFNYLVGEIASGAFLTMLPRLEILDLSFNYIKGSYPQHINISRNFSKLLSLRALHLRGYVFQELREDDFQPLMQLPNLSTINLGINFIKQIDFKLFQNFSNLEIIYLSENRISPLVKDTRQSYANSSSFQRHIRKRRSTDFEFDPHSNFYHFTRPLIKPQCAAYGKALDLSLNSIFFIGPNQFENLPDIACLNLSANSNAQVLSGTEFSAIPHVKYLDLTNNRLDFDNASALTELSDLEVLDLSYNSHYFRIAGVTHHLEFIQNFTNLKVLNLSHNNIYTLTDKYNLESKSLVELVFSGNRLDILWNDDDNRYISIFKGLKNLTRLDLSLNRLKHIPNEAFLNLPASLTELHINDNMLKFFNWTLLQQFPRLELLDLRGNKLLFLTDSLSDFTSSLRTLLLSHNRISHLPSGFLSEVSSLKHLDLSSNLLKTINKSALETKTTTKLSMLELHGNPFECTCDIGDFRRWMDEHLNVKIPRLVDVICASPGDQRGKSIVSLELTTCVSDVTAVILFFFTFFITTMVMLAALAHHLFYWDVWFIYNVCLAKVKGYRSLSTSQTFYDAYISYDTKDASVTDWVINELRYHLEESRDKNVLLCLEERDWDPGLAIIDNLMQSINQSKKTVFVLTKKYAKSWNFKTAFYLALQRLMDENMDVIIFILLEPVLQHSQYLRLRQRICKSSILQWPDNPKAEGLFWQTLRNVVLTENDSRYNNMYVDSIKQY
Test: Dose dependent TLR8-mediated NF-κB-luciferase response in HEK293 cells transfected with TLR8 (Example 5)
Type: cell-based
Design: expressed in transfected cells; host or cells: HEK293 (ATCC CRL-1573), pIRES vector, G-418 selected, co-transfected with NFkB-luc reporter
Conditions: 0.1 μM
Here the recorded Fold increase over vehicle is given for each entry.
// return the numeric value with its unit appended

// below: answered molecules
CCOCc1nc2c(N)nc3ccccc3c2n1CC(C)(C)NC(=O)NC(C)C 0.9 fold
COCCc1nc2c(N)nc3ccccc3c2n1CCCCNC(=O)c1cnc2ccccc2n1 0.8 fold
CCOCc1nc2c(N)nc3cc(-c4ccccc4)ccc3c2n1CC1CCNCC1 0.9 fold
CCCCc1nc2c(N)nc3ccccc3c2n1CC(C)(C)CNC(=O)N1CCOCC1 0.9 fold

Query Fold increase over vehicle for `COCCc1nc2c(N)nc3c(c2n1CCOCCNC(=O)Nc1ccccc1)CCCC3`
0.7 fold

---

Biological target: TLR8 (Homo sapiens)
Assay: Dose dependent TLR8-mediated NF-κB-luciferase response in HEK293 cells transfected with TLR8 (Example 5)
Assay type: cell-based
Set-up: expressed in transfected cells; host or cells: HEK293 (ATCC CRL-1573), pIRES vector, G-418 selected, co-transfected with NFkB-luc reporter
Settings: 3.0 μM
Procedure: Twenty-four hours before transfection, HEK293 cells were adhered to a 10 cm dish (Corning 430167, Corning Inc., Corning, N.Y.) at 37° C., 8% CO2. […] The transfected cells were plated in white opaque 96 well plates (Costar 3917, Corning Inc., Corning, N.Y.) at a concentration of 5×10^4 cells per well in 100 μL of HEK293 media and incubated at 37° C., 8% CO2 for 4 hours. […] Luminescence was measured on an LMAX luminometer (Molecular Devices Corp., Sunnyvale, Calif.). […]
Here the recorded Fold increase over vehicle is given for each entry.
Return type: number; implicit unit fold.

// below: answered compounds
compound	Fold increase over vehicle (fold)
COCCc1nc2c(N)nc3ccccc3c2n1CCCCNC(=O)c1cnc2ccccc2c1	3.2
COCCc1nc2c(N)nc3ccccc3c2n1CCCCNC(=O)c1cnc2ccccc2n1	3.8
COCCc1nc2c(N)nc3cc(-c4cncc(CO)c4)ccc3c2n1CC(C)(C)O	3.8
CCOCc1nc2c(N)nc3cc(-c4cccnc4)ccc3c2n1CC(O)CO (centres unmarked)	7.2

Query Fold increase over vehicle for `CCCCc1nc2c(N)nc3ccccc3c2n1CCCNC(=O)N1CCOCC1`
1.5

Query Fold increase over vehicle for `CCOCC(=O)NC(C)(C)Cn1c(COCC)nc2c(N)nc3ccccc3c21`
2.1

Query Fold increase over vehicle for `CCc1nc2c(N)nc3ccccc3c2n1CCS(C)(=O)=O`
0.9

Query Fold increase over vehicle for CCOCc1nc2c(N)nc3cc(-c4ccc(CO)cc4)ccc3c2n1CC1COC(C)(C)O1 (centres unmarked)
2.0

Query Fold increase over vehicle for `CCOCc1nc2c(N)nc3cc(-c4ccncc4)ccc3c2n1CC(C)(C)O`
10.0

Query Fold increase over vehicle for `CCOCc1nc2c(N)nc3ccccc3c2n1CC(C)(C)NC(=O)NC1CCCC1`
2.6

Query Fold increase over vehicle for `COCCc1nc2c(N)nc3c(c2n1CCOCCNC(=O)Nc1ccccc1)CCCC3`
3.3
